The reported numbers originate from patent US20170190705A1.

Target: caALK3 (Homo sapiens, UniProt P36894, Q233D)
Sequence (P36894 24-532 Q233D): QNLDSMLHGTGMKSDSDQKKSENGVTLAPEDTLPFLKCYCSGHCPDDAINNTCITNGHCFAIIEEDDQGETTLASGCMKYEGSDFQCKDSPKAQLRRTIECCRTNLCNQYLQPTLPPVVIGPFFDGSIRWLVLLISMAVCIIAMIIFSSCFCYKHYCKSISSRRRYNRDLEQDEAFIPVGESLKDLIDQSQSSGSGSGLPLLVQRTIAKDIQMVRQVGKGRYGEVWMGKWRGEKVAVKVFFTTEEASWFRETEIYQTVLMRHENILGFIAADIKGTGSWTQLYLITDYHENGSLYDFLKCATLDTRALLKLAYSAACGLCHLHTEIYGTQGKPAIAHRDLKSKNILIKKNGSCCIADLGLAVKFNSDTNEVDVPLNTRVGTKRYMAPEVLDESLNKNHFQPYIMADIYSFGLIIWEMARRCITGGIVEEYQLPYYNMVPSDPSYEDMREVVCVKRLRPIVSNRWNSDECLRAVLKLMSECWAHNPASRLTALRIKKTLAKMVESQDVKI
Test: Luciferase reporter assay constitutively active ALK3
Settings: read-out: Cell Based Assay caALK3 IC50
Experimental: C2Cl2 […] cells stably transfected with BMP responsive element from the Id promoter fused to luciferase reporter gene (BRE-Luc) were generously provided by Dr. Peter ten Dijke (Leiden University Medical Center, NL) following the methods described by Zilberberg et al., BMC cell biology 2007, 8, 41-50. […] Media was discarded, and firefly luciferase activity was measured (Promega) according to manufacturer's protocol. […]
readout_type: IC50 (nM)
Answer format: numeric, nM implied, no suffix.

Past entries and their recorded results:
{"smiles_text": "COc1cc(-c2cc(-c3ccc(N4CCNCC4)cc3)cnc2N)cc(OC)c1OC", "system": "caALK3 (Homo sapiens, UniProt P36894, Q233D)", "IC50 (nM)": 8}
{"smiles_text": "COc1cc(-c2cc(-c3ccc(N4CCNCC4)cc3)cnc2C)cc(OC)c1OC", "system": "caALK3 (Homo sapiens, UniProt P36894, Q233D)", "IC50 (nM)": 382}

Turning to the following compound.
For the compound COc1cc(-c2cncc(-c3ccc(N4CCNCC4)cc3)c2)cc(OC)c1OC , give its measured IC50 value.
105

* * *

Target: caALK4 (Homo sapiens)
Sequence (P36896 1-505 T206D): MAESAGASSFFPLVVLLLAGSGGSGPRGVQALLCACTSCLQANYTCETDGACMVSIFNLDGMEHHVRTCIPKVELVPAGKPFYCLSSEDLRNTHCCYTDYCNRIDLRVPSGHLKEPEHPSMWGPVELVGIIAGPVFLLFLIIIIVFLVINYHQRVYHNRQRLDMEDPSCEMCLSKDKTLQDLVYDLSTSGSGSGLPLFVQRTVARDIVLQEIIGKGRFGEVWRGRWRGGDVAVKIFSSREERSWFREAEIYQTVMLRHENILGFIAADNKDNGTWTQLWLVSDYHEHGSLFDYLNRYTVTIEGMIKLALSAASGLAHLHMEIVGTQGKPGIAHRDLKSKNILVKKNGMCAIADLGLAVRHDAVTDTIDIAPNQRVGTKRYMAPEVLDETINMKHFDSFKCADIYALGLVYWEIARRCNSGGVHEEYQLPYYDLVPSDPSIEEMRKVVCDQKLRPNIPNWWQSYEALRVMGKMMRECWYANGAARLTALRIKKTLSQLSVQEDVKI
Test: Luciferase reporter assay constitutively active ALK4
Settings: read-out: Cell Based Assay caALK4 IC50
readout_type: pIC50
Lab note: report pIC50 as minus log10 of the concentration in molar units, number only.

Past entries and their recorded results:
{"smiles_text": "COc1cc(-c2cncc(-c3ccc(N4CCNCC4)cc3)c2)cc(OC)c1OC", "reading": 6.37}
{"smiles_text": "COc1cc(-c2cc(-c3ccc(N4CCNCC4)cc3)cnc2C)cc(OC)c1OC", "reading": 5.26}

For the compound COc1cc(-c2cc(-c3ccc(N4CCNCC4)cc3)cnc2N)cc(OC)c1OC , give its measured pIC50 value.
7.60

* * *

Tested on: HePG2 hepatocarcinoma cells
Format: cell-based
Details: human, 4 h, 1 μM
readout_type: Cell viability (%)
Answer format: numeric, % implied, no suffix.

Past entries and their recorded results:
{"molecule": "C#Cc1cccc(Nc2ncnc3cc(OCCOC)c(OCCOC)cc23)c1 [Erlotinib, reference compound]", "reading": 96}
{"molecule": "COc1cc(OC)cc(-c2cncc(-c3ccc(N4CCNCC4)cc3)c2)c1", "reading": 95}
{"molecule": "COc1cc(-c2cncc(-c3ccc(N4CCNCC4)cc3)c2)cc(OC)c1OC", "reading": 96}

Turning to the following molecule.
For the molecule N#CC[C@H](C1CCCC1)n1cc(-c2ncnc3[nH]ccc23)cn1 [Ruxolitinib, reference compound] , give its measured Cell viability value.
101
